- System: C. trachomatis D infected cell cultures
- Method summary: Pulse chase studies of candidates for secreted proteins (2D-PAGE)
- Type: cell-based
Quantity: turnover time in pulse chase studies

DT48: C. trachomatis D protein spot, N-terminal fragment of CT858 (protein) IHSPVQGESLVCKNALQDLSFLEHLLQVKYAPKTWKEQYLGWDLVQSSVSAQQKLRTQENPSTSFCQQVLADFIGGLNDFHAGVTFFAIESAYLPYTVQKSSDGRFYFVDIMTFSSEIRVGDELLEVDGAPVQDVLATLYGSNHKGTAAEESAALRTLFSRMASLGHKVPSGRTTLKIRRPFGTTREVRVKWRYVPEGVGDLATIAPSIRAPQLQKSM : long
DT4: C. trachomatis D protein spot, C-terminal fragment of CT858 (protein) GYNIGSTDGFLPVIGPVIWESEGLFRAYISSVTDGDGKSHKVGFLRIPTYSWQDMEDFDPSGPPPWEEFAKIIQVFSSNTEALIIDQTNNPGGSVLYLYALLSMLTDRPLELPKHRMILTQDEVVDALDWLTLLENVDTNVESRLALGDNMEGYTVDLQVAEYLKSFGRQVLNCWSKGDIELSTPIPLFGFEKIHPHPRVQYSKPICVLINEQDFSCADFFPVVLKDNDRALIVGTRTAGAGGFVFNVQFPNRTGIKTCSLTGSLAVREHGAFIENIGVEPHIDLPFTANDIRYKGYSEYLDKVKKLVCQLINNDGTIILAEDGSF : long
